Target: T1, human GIP receptor (human) (UniProt P48546)
T1 sequence (looked up): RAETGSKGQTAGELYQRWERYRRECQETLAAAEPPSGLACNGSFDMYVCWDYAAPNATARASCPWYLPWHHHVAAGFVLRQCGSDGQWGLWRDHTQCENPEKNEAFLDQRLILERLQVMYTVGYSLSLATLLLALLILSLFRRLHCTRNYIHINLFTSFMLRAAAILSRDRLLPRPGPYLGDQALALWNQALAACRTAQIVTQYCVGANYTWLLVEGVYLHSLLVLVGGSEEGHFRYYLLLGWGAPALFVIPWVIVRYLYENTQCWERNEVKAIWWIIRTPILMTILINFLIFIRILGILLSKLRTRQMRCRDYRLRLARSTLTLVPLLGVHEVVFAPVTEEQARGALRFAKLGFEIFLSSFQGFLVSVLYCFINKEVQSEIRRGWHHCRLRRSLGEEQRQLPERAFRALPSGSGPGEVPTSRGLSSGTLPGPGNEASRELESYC
Test: cell-based or functional assay
Observed property: Relative cAMP EC50, nM (0.1% casein) (nM)
Could you give me the number in nM? Just the number is fine.

See these solved cases before continuing.
Problem: Fill in reported Relative cAMP EC50, nM (0.1% casein) for this entry: HXQGTXTSDXXIXLDXKAQXAFIEYLLEGGPSSGEPPPE (synthetic construct; SITE 2: note = 2-Aminoisobutyric Acid; SITE 6: note = alpha-methyl-2-fluoro-L-phenylalanine; SITE 10: note = 3-(4-Pyridyl)-L-alanine; SITE 11: note = alpha-methyl-L-serine; SITE 13: note = alpha-methyl-leucine; SITE 16: note = L-ornithine; SITE 17: note = Lysine is chemically mo) [Example 466]
Result: 0.0466

Problem: For YXQGTXTSDYXILLDKKAQXAFIEYLEEGGPSSGEPPPE (synthetic construct; SITE 2: note = 2-Aminoisobutyric Acid; SITE 6: note = alpha-methyl-2-fluoro-L-phenylalanine; SITE 11: note = alpha-methyl-L-serine; SITE 17: note = Lysine is chemically modified through conjugation of the epsilon-amino group of the Lysine side chain with (2-[2-(2-Amino-ethoxy)-e)) [Example 469] , write its Relative cAMP EC50, nM (0.1% casein).
Result: 0.031

Problem: Please give measured Relative cAMP EC50, nM (0.1% casein) of the following entry: YXQGTFTSDFSKXLDKKAQXAFIEYLLEGGESSGAPPPSGS (Aib, αMeL, (AEEA)2-γGlu-C18 diacid lysine acylation, C-terminal amide; synthetic construct; SITE 2: note = 2-Aminoisobutyric Acid; SITE 13: note = alpha-methyl-leucine; SITE 17: note = Lysine is chemically modified through conjugation of the epsilon-amino group of the Lysine side chain with (2-[2-(2-Amino-ethoxy)-ethoxy]-acetyl)2-(gamma-Glu)-CO-(CH2 )16-CO2H; SITE 20:) [Example 147]
Result: 0.343

Problem: Complete the entry with Relative cAMP EC50, nM (0.1% casein) for YXQGTFTSDFSXXLDKKAQXAFIEYLLEGGPSSGAPPPEGT (Aib, Orn, αMeL, acylated Lys, amide; synthetic construct; SITE 2: note = 2-Aminoisobutyric Acid; SITE 12: note = L-ornithine; SITE 13: note = alpha-methyl-leucine; SITE 17: note = Lysine is chemically modified through conjugation of the epsilon-amino group of the Lysine side chain with (2-[2-(2-Amino-ethoxy)-ethoxy]-acetyl)-(gamma-Glu)) [Example 160]
Result: 0.354

Further cases:
Problem: Give the measured Relative cAMP EC50, nM (0.1% casein) for YXQGTFTSDFSQXLDKKAQXAFIEYLLEGGPSSGAPPPSGS (Aib, αMeL; lipidated Lys; C-terminal amide; synthetic construct; SITE 2: note = 2-Aminoisobutyric Acid; SITE 13: note = alpha-methyl-leucine; SITE 17: note = Lysine is chemically modified through conjugation of the epsilon-amino group of the Lysine side chain with (2-[2-(2-Amino-ethoxy)-ethoxy]-acetyl)-(gamma-Glu)-CO-(CH2) 16-CO2H; SITE 20: n) [Example 150]
Result: 0.346

Problem: Provide measured Relative cAMP EC50, nM (0.1% casein) value, entry: YXQGTFTSDFSXXLDKKAQXAFIEYLLEAGPSSGEPPPSGS (non-natural residues; lysine acylated with AEEA linker C18 diacid; C-amide; synthetic construct; SITE 2: note = 2-Aminoisobutyric Acid; SITE 12: note = L-ornithine; SITE 13: note = alpha-methyl-leucine; SITE 17: note = Lysine is chemically modified through conjugation of the epsilon-amino group of the Lysine side chain with (2-[2-(2-Amino-ethoxy)-ethoxy]-acetyl)2-(gamma-Glu)) [Example 155]
Result: 0.177
